The following variants are listed with their measured protein stability index values.
B1: C1orf55 (parent)
chain: FTSPDYQQQCHEMAERLEDSVLKG

# Variants of: B1
# experimentalProtocol: protein stability index of a GFP-peptide fusion (GPS, HEK-293T) (PSI 1-6); higher = more stable;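 note: lentivirally expressed fusions sorted by FACS into six bins by GFP to DsRed ratio, PSI derived from sequencing read proportions per bin multiplied by bin number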
# conditionDetails: c terminus: a fixed tail appended

- itemSequence: "FTSPDYQQQCHEMAERLEDSALKG [V21A]"
  protein stability index: 3.08
- itemSequence: "FTSPDYQQQCHEMAERLEDSVLKV [G24V]"
  protein stability index: 1.72
- itemSequence: "FTSPDYQQQCHEMAERLEDGVLKG [S20G]"
  protein stability index: 1.72
- itemSequence: "FTSPDYQQQCHEMAYRLEDSVLKG [E15Y]"
  protein stability index: 1.22
- itemSequence: "FTSPDYQQQCHEMAERLEDSVSKG [L22S]"
  protein stability index: 2.76
- itemSequence: "FTSPDYQQQCHENAERLEDSVLKG [M13N]"
  protein stability index: 2.66
- itemSequence: "FTSPDYQQECHEMAERLEDSVLKG [Q9E]"
  protein stability index: 3.26
- itemSequence: "FTSPDYQQQCHEMAERLEDSVEKG [L22E]"
  protein stability index: 2.1
- itemSequence: "FRSPDYQQQCHEMAERLEDSVLKG [T2R]"
  protein stability index: 4.16
- itemSequence: "FTSPDYQLQCHEMAERLEDSVLKG [Q8L]"
  protein stability index: 1.68
- itemSequence: "FTSPDYQQQCHEMAERHEDSVLKG [L17H]"
  protein stability index: 2.52
- itemSequence: "FTSPDYQQQCHEMAERLEDSVLKY [G24Y]"
  protein stability index: 1.8
- itemSequence: "FTSPDYQQQCHEMAERLEDSVLWG [K23W]"
  protein stability index: 2.39
- itemSequence: "FTSPDYQQQCHEMAQRLEDSVLKG [E15Q]"
  protein stability index: 1.67
- itemSequence: "FDSPDYQQQCHEMAERLEDSVLKG [T2D]"
  protein stability index: 4.63
- itemSequence: "FTSPDYQQQCHEMAFRLEDSVLKG [E15F]"
  protein stability index: 1.78
- itemSequence: "FTSPDYQQQCHIMAERLEDSVLKG [E12I]"
  protein stability index: 2.98
- itemSequence: "FTSPDYQQQCHEMAERLEDSVLKK [G24K]"
  protein stability index: 2.49
- itemSequence: "FTSPDYQQQCHEMAERLEDSVLKD [G24D]"
  protein stability index: 1.91
- itemSequence: "FTSPSYQQQCHEMAERLEDSVLKG [D5S]"
  protein stability index: 1.81
- itemSequence: "FTSPDYQQQCHEMAERLNDSVLKG [E18N]"
  protein stability index: 1.44
- itemSequence: "FTSPDGQQQCHEMAERLEDSVLKG [Y6G]"
  protein stability index: 4.76
